target under test: human FPR2 receptors (Homo sapiens, UniProt P25090)
Sequence (P25090 1-351): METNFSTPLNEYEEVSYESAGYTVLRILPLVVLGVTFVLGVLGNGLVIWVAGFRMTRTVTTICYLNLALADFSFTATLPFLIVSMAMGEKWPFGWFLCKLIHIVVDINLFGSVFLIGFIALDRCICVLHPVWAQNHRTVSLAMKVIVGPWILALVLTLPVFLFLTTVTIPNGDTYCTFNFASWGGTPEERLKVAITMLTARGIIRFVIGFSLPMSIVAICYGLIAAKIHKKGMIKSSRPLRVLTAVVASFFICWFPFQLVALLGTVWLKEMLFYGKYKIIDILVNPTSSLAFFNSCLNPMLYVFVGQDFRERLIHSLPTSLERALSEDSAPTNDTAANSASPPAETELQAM
run description: FPR2 cAMP assay in CHO cells overexpressing human FPR2 (HTRF)
Type: cell-based
measurement conditions: hFPR2 assay; potency bins; read-out: hFPR2 agonist activity EC50
The entries below come with measured EC50 values attached.

Here's what some known entries look like.
compound: COc1cc(F)c([C@@H]2CNC(=O)[C@H]2Nc2nnc(-c3ccc([S+]([O-])C(F)(F)F)cc3)o2)c(F)c1 (stereo partly drawn) [Example 26]
EC50: 0.15 to 1 µM
--
compound: COc1cc(F)c([C@@H]2CNC(=O)[C@H]2Nc2nnc(C3CC3c3ccc(Cl)cc3)o2)c(F)c1 (stereo partly drawn) [Example 41]
EC50: ≤ 0.04 µM
--
compound: COc1cc(F)c([C@@H]2CNC(=O)[C@H]2Nc2nnc(C3CC3c3ccc(Cl)cc3F)o2)c(F)c1 (stereo partly drawn) [Example 46]
EC50: ≤ 0.04 µM
--
compound: COc1cc(F)c([C@@H]2CNC(=O)[C@H]2Nc2nnc(C3CC3c3ccccc3OC)o2)c(F)c1 (stereo partly drawn) [Example 44]
EC50: 0.04 to 0.15 µM
--
compound: COc1cc(F)c([C@@H]2CNC(=O)[C@H]2Nc2nnc(-c3ccc(C(F)(F)F)cc3)o2)c(F)c1 [Example 8]
EC50: ≤ 0.04 µM
--
compound: COc1cc(F)c([C@@H]2CNC(=O)[C@H]2Nc2nnc(-c3ccc(OC(F)F)cc3)o2)c(F)c1 [Example 37]
EC50: 0.15 to 1 µM
--
compound: COc1cc(F)c([C@@H]2CNC(=O)[C@H]2Nc2nnc(-c3ccc(Cl)nc3)s2)c(F)c1 [Example 31]
EC50: 0.04 to 0.15 µM
--
compound: COc1cc(F)c([C@@H]2CNC(=O)[C@H]2Nc2nnc(-c3ccc(F)c(F)c3)o2)c(F)c1 [Example 5]
EC50: 0.15 to 1 µM
--
compound: COc1cc(F)c([C@@H]2CNC(=O)[C@H]2Nc2nnc(-c3ccc(C(F)(F)F)nc3)s2)c(F)c1 [Example 33]
EC50: 0.15 to 1 µM
--
compound: COc1cc(F)c([C@@H]2CNC(=O)[C@H]2Nc2nnc(-c3cccnc3)o2)c(F)c1 [Example 6]
EC50: 0.15 to 1 µM

Q. // fetch human FPR2 receptors (Homo sapiens, UniProt P25090) EC50 for COc1cc(F)c([C@@H]2CNC(=O)[C@H]2Nc2nnc(-c3ccccc3)o2)c(F)c1 [Example 4]
A. 0.15 to 1 µM

Q. // fetch human FPR2 receptors (Homo sapiens, UniProt P25090) EC50 for COc1cc(F)c([C@@H]2CNC(=O)[C@H]2Nc2nnc(-c3ccc(Oc4cncc(C)n4)cc3)o2)c(F)c1 [Example 63]
A. 0.04 to 0.15 µM

Q. // fetch human FPR2 receptors (Homo sapiens, UniProt P25090) EC50 for COc1cc(F)c([C@@H]2CNC(=O)[C@H]2Nc2nnc(-c3ccc(Cl)nc3)o2)c(F)c1 [Example 16]
A. ≤ 0.04 µM

Q. // fetch human FPR2 receptors (Homo sapiens, UniProt P25090) EC50 for COc1cc(F)c([C@@H]2CNC(=O)[C@H]2Nc2nnc(-c3ccc(F)cc3)o2)c(F)c1 [Example 12]
A. 0.04 to 0.15 µM

Q. // fetch human FPR2 receptors (Homo sapiens, UniProt P25090) EC50 for COc1cc(F)c([C@@H]2CNC(=O)[C@H]2Nc2nnc(C3CC3c3cccc(Cl)c3)o2)c(F)c1 (stereo partly drawn) [Example 45]
A. ≤ 0.04 µM

The measurements presented in this section are drawn from patent US12281108B2.
